Origin of measurements: patent US12590099B2

# TEST TARGET: HDAC6 (Homo sapiens, UniProt Q9UBN7)
# Sequence (Q9UBN7 whole entry): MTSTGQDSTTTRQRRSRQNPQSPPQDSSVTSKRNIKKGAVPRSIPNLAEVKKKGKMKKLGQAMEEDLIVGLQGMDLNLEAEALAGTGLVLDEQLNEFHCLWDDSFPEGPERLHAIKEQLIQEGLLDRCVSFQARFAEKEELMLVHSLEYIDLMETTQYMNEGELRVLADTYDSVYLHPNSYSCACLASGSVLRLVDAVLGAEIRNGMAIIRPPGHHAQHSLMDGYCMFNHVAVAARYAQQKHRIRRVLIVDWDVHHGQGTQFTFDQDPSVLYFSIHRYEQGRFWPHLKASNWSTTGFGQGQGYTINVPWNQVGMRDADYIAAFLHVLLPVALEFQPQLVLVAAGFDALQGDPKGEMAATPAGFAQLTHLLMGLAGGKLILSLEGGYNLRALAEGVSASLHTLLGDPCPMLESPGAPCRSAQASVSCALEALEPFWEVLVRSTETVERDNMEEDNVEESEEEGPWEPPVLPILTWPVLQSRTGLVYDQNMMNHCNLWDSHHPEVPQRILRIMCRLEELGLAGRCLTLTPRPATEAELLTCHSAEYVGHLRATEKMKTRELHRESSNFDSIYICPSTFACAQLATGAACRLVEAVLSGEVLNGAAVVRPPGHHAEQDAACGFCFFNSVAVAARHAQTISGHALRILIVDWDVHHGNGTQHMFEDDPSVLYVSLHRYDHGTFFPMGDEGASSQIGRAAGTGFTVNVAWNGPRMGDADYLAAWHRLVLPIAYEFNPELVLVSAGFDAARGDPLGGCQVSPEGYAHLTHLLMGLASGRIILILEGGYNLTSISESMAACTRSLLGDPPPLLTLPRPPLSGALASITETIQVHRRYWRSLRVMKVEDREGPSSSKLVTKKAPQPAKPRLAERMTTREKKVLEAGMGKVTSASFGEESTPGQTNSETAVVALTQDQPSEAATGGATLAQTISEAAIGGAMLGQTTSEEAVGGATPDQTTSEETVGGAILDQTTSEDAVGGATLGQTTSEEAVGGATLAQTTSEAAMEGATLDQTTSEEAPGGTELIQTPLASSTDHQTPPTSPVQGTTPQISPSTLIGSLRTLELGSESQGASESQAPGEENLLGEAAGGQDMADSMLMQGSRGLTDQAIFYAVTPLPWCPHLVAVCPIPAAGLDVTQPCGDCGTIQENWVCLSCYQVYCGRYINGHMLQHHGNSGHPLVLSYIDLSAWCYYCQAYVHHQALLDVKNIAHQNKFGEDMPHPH
# ASSAY NAME: Human HDAC enzyme inhibitor Fluor-de-Lys assay, HDAC6
# Assay type: biochemical
# STATED CONDITIONS: HDAC6, Fluor-de-Lys assay
METRIC NAME: log10(IC50) (log10 of the value in µM)

1. CCC(=O)CCCCC[C@H](NC(=O)[C@H]1CC12CCN(C)CC2)c1ncc(-c2ccc(C(=O)NC3CCOC3)cc2)[nH]1 (stereo partly shown)    1.59
2. CCC(=O)CCCCC[C@H](NC(=O)C1(N)CC2(CN(C)C2)C1)c1ncc(-c2cc3ccccc3nc2OC)[nH]1    0.11
3. CCC(=O)CCCCC[C@H](NC(=O)[C@H]1CC12CCN(C)CC2)c1ncc(-c2cnc3cccnc3c2)[nH]1    0.50
4. CCC(=O)CCCCC[C@H](NC(=O)[C@H]1CC12CCN(C)CC2)c1ncc(-c2ccc(-n3nc(C)cc3C)cc2)[nH]1    1.45
5. CCC(=O)CCCCC[C@H](NC(=O)[C@H]1CC12CCN(C)CC2)c1ncc(-c2cnc(OC)nc2)[nH]1    1.08
6. CCC(=O)CCCCC[C@H](NC(=O)[C@H]1CC12CCN(CC)CC2)c1ncc(-c2ccc3nn(C4CC4)cc3c2)[nH]1    0.89
7. CCC(=O)CCCCC[C@H](NC(=O)[C@H]1CC12CCN(CC)CC2)c1ncc(-c2ccc3ncccc3c2)[nH]1    -0.26

* * *

Below, each of the compounds is paired with its reported IC50 value.
# TEST TARGET: Recombinant human HDAC1 (Homo sapiens)
# Construct: FLAG (C); made in house
# ASSAY NAME: Human HDAC enzyme inhibitor Fluor-de-Lys assay, HDAC1
# Assay type: biochemical
METRIC NAME: IC50 (nM)

1) CCC(=O)CCCCC[C@H](NC(=O)C1=NOC2(CCN(C)CC2)C1)c1ncc(-c2cc3ccc(C)nc3cc2OC)o1 [Compound 196]    1.42
2) CCC(=O)CCCCC[C@H](NC(=O)[C@H]1CC12CCN(CC1CC1)CC2)c1ncc(-c2cc3ccc(=O)n(C)c3cc2OC)o1 [Compound 199]    0.35
3) CCC(=O)CCCCC[C@H](NC(=O)C1=NOC2(CCN(CC)CC2)C1)c1ncc(-c2cc3ccc(C)nc3cc2OC)[nH]1 [Compound 207]    0.24

* * *

# TEST TARGET: Recombinant human HDAC2 (Homo sapiens, UniProt Q92769)
# Construct: Full length human HDAC2-FLAG was expressed in baculovirus infected Sf9 cells; FLAG (C); made in house; host or cells: Sf9 (baculovirus)
# Sequence (Q92769 whole entry): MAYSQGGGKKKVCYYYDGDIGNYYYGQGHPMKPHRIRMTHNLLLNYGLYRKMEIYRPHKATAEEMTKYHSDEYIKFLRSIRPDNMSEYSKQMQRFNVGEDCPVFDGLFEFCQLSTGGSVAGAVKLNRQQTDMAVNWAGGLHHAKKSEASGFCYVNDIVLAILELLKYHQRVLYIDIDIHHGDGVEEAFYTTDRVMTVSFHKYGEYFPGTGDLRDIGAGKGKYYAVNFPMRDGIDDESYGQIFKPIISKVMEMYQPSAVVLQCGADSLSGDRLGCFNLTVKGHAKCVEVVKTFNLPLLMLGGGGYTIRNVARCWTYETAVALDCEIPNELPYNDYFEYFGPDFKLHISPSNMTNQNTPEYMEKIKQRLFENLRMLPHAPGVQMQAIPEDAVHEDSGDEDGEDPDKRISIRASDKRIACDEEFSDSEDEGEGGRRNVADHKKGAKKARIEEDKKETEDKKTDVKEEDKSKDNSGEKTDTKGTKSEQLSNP
# ASSAY NAME: Human HDAC enzyme inhibitor Fluor-de-Lys assay, HDAC2
# Format: biochemical
# STATED CONDITIONS: recombinant human HDAC2, Fluor-de-Lys assay
Below, each entry is listed alongside its reported log10 IC50.
METRIC NAME: log10 IC50 (log10 of the value in µM)

1) CCC(=O)CCCCC[C@H](NC(=O)C1=NOC2(CCN(S(C)(=O)=O)CC2)C1)c1nnc(-c2cc3ccccc3nc2OC)o1 [Compound 371]    -0.54
2) CCC(=O)CCCCCC(NC(=O)C1CCC2(CC1)OC(=O)c1cnccc12)c1nnc(-c2cc3ccccc3nc2OC)o1 (stereo not shown) [Compound 364]    -0.61
3) CCC(=O)CCCCC[C@H](NC(=O)C1=NOC2(CCN(C(C)C)CC2)C1)c1nnc(-c2cc3ccccc3nc2OC)o1 [Compound 369]    -1.17
4) CCC(=O)CCCCC[C@H](NC(=O)CC1CC2(C1)CN(C)C2)c1nnc(-c2cc3ccccc3nc2OC)o1 [Compound 308]    -1.01
5) CCC(=O)CCCCC[C@H](NC(=O)C1(N)CC2(CN(C)C2)C1)c1ncc(-c2cc3ccccc3nc2OC)[nH]1 [Compound 276]    -2.04
6) CCC(=O)CCCCC[C@H](NC(=O)[C@H]1CC12CCN(C)CC2)c1ncc(-c2cc3ccncc3cc2OC)o1 [Compound 405]    -2.70

* * *

# TEST TARGET: Recombinant human HDAC2 (Homo sapiens)
# Construct: Full length human HDAC2-FLAG was expressed in baculovirus infected Sf9 cells; FLAG (C); made in house; host or cells: Sf9 (baculovirus)
# ASSAY NAME: Human HDAC enzyme inhibitor Fluor-de-Lys assay, HDAC2
# Type: biochemical
pIC50: −log10 of the molar value.
METRIC NAME: pIC50

1. CCC(=O)CCCCC[C@H](NC(=O)[C@H]1CC12CCN(CC)CC2)c1ncc(-c2cc3cccnc3cc2OC)o1    8.66
2. C=CCN1CCC2(CC1)C[C@@H]2C(=O)N[C@@H](CCCCCC(=O)CC)c1ncc(-c2ccc3c(c2)C2CCC3N2CC=C)[nH]1 (some centres unmarked)    6.42
3. CCC(=O)CCCCC[C@H](NC(=O)C1CC12CCN(C)C(C)(C)C2)c1ncc(-c2ccc3nc(C)ccc3c2)[nH]1 (single isomer, unassigned) [Compound 133]    8.68
4. CCC(=O)CCCCC[C@H](NC(=O)C1CC2(C1)CN(C)C2)c1ncc(-c2ccc3nn(C)cc3c2)[nH]1    7.99
5. CCC(=O)CCCCC[C@H](NC(=O)[C@H]1CC[C@]2(CC1)OC(=O)c1ncccc12)c1ncc(-c2cc3ccccc3nc2OC)[nH]1    7.42
6. COc1cc2nc(C)ccc2cc1-c1cnc([C@H](CCCCCC(=O)CC2CC2)NC(=O)[C@H]2CC23CCN(C)CC3)o1    8.01
7. CCC(=O)CCCCC[C@H](NC(=O)C1=NOC2(CCN(C)CC2)C1)c1ncc(-c2cc3ccc(=O)n(C)c3cc2OC)o1    7.96
8. CCC(=O)CCCCC[C@H](NC(=O)[C@H]1CC12CCN(C)CC2)c1ncc(-c2ccc3ncc(Cl)cc3c2)[nH]1    8.35
9. CCC(=O)CCCCC[C@H](NC(=O)[C@H]1CC12CCN(C)CC2)c1ncc(-c2cc3ccccc3nc2OC)o1 [Compound 77]    8.32
10. CCC(=O)CCCCC[C@H](NC(=O)[C@H]1CC12CCN(CC1CC1)CC2)c1ncc(-c2cc3ccc(=O)n(C)c3cc2OC)o1    8.89
11. CCC(=O)CCCCC[C@H](NC(=O)[C@H]1CC12CCN(C)CC2)c1ncc(-c2ccc3nc(C(F)(F)F)ccc3c2)o1    7.21
12. CCC(=O)CCCCC[C@H](NC(=O)C1CN(C)C1)c1[nH]c(-c2ccc(F)cc2)nc1Br    6.51
13. CCC(=O)CCCCC[C@H](NC(=O)[C@H]1CC12CCN(CC)CC2)c1ncc(-c2ccc3c(=O)n(C4CC4)ccc3c2)[nH]1    8.85
14. CCC(=O)CCCCC[C@H](NC(=O)[C@H]1CC12CCN(CC)CC2)c1ncc(-c2ccc3c(cnn3C3CC3)c2)[nH]1    8.62
15. CCC(=O)CCCCC[C@H](NC(=O)C1=NOC2(CCN(C)CC2)C1)c1ncc(-c2cc3ccncc3nc2OC)o1    7.46
16. CCC(=O)CCCCC[C@H](NC(=O)[C@H]1CC12CCN(CC)CC2)c1ncc(-c2ccc(-c3cnc(C4CC4)cn3)cc2)o1    7.05
17. CCC(=O)CCCCC[C@H](NC(=O)[C@H]1CC12CCN(C)CC2)c1ncc(-c2cc3ccc(=O)n(C)c3cc2OC)o1    8.42
18. CCC(=O)CCCCC[C@H](NC(=O)[C@H]1CC12CCN(CC)CC2)c1nc(-c2cc3ccc(C)nc3cc2OC)cn1COC(=O)C(C)(C)C    8.40
19. CN1CCC2(CC1)C[C@@H]2C(=O)N[C@@H](CCCCCC(=O)CC(F)(F)F)c1ncc(-c2ccc(F)cc2)[nH]1    6.90
20. CCC(=O)CCCCC[C@H](NC(=O)C1CCC2(CC1)CN(C)C2)c1ncc(-c2ccc3nn(C)cc3c2)[nH]1    7.82
21. CCC(=O)CCCCC[C@H](NC(=O)C1=NOC2(CCN(C(C)C)CC2)C1)c1ncc(-c2cc3ccccc3nc2OC)[nH]1    8.10
22. CCC(=O)CCCCC[C@H](NC(=O)C1=NOC2(CCN(CC3CC3)CC2)C1)c1ncc(-c2cc3ccc(C)nc3cc2OC)[nH]1    8.74
23. CCC(=O)CCCCC[C@H](NC(=O)C1=NOC2(CCN(C(C)C)CC2)C1)c1ncc(-c2ccc3nc(C4CC4)ccc3c2)o1    7.51
24. CCC(=O)CCCCC[C@H](NC(=O)[C@H]1CC12CCN(C)CC2)c1ncc(-c2ccc3c(c2)C2CCC3C2)[nH]1 (some centres unmarked)    7.44

* * *

List of IC50 values.
# TEST TARGET: Recombinant human HDAC1 (Homo sapiens, UniProt Q13547)
# Construct: FLAG (C); made in house
# Sequence (Q13547 whole entry): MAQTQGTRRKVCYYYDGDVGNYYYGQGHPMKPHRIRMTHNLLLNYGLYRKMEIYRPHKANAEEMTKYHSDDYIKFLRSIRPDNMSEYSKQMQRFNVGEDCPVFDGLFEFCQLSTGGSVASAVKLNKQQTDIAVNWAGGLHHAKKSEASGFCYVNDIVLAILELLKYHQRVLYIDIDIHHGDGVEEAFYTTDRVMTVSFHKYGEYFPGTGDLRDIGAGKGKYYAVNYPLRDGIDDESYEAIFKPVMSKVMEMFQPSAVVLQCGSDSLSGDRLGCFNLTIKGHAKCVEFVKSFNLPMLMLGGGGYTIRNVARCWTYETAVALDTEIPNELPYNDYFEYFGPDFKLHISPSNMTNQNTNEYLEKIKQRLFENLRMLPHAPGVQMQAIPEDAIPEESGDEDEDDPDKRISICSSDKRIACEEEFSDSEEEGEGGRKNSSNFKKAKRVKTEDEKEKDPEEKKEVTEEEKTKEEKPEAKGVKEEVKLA
# ASSAY NAME: Human HDAC enzyme inhibitor Fluor-de-Lys assay, HDAC1
# Format: biochemical
METRIC NAME: IC50 (nM)

1. CCC(=O)CCCCC[C@H](NC(=O)[C@H]1CC12CCN(C)CC2)c1ncc(-c2ccc3nc(N(C)C)ccc3c2)[nH]1 [Compound 66]    147
2. CCC(=O)CCCCC[C@H](NC(=O)C1=NOC2(CCN(CC3CC3)CC2)C1)c1ncc(-c2cc3ccc(C)nc3cc2OC)[nH]1 [Compound 219]    0.1
3. CCC(=O)CCCCC[C@H](NC(=O)[C@H]1CC12CCN(C)CC2)c1ncc(-c2cc(OC)c3ccccc3n2)[nH]1 [Compound 170]    5.79
4. CCC(=O)CCCCC[C@H](NC(=O)[C@H]1CC12CCN(C)CC2)c1ncc(-c2ccc3oc(=O)ccc3c2)[nH]1 [Compound 138]    1.32
5. CN1CCC2(CC1)C[C@@H]2C(=O)N[C@@H](CCCCCC(=O)CC1CC1)c1ncc(-c2ccc(F)cc2)[nH]1 [Compound 84]    9.95
6. CCC(=O)CCCCC[C@H](NC(=O)[C@H]1CC12CCN(C)CC2)c1ncc(-c2coc3ccccc3c2=O)[nH]1 [Compound 86]    15.9
7. CCC(=O)CCCCC[C@H](NC(=O)[C@H]1CC12CCN(CC)CC2)c1ncc(-c2ccc(-c3nccs3)cc2)o1 [Compound 93]    7.15
